- Tested on: pERK in A375 cells
- Experiment Notes: In Cell Western (ICW) assay, pERK in A375 cells
- Assay type: cell-based
- Study Conditions: Homo sapiens, A-375, 3 h treatment
pIC50: −log10 of the molar value.
Measured Metric: pIC50

Data point: Nc1ncc(-c2nc(N3CCOCC3)c3nc(-c4cccc(NS(=O)(=O)CCCF)c4F)ccc3n2)cc1F ; pIC50 = 6.00 to 7.00

The compound CNC(=O)Nc1ccc(-c2nc(N3CCOCC3)c3cc(-c4cccc(NS(=O)(=O)c5c(F)cccc5F)c4F)cc(OC)c3n2)cc1 showed pIC50 equal to 6.00 to 7.00

Record CCCS(=O)(=O)Nc1cccc(-c2cc(OC)c3nc(-c4ccc(NC(=O)NC)cc4)nc(N4CCOCC4)c3c2)c1F , field pIC50: 6.00 to 7.00

So, CCCS(=O)(=O)Nc1cccc(-c2cc(OC)c3nc(-c4cnc(N)nc4)nc(N4CCOCC4)c3c2)c1F ? Its pIC50 was 6.00 to 7.00

Per the record, Nc1ccc(-c2nc(N3CCOCC3)c3nc(-c4cccc(NS(=O)(=O)c5cc(F)ccc5F)c4F)ccc3n2)cn1 has pIC50 of 7.00 to 9.00

Briefly, pIC50 measured for COc1cc(-c2c(F)ccc(NS(=O)(=O)c3c(F)cccc3F)c2F)cc2c(N3CCOCC3)nc(-c3ccc(N)nc3)nc12 : 6.00 to 7.00

The recorded pIC50 for C[C@H]1COCCN1c1nc(-c2cnc(N)cc2C(F)(F)F)nc2ccc(-c3cccc(NS(=O)(=O)CCCF)c3F)nc12 is 7.00 to 9.00

// field: pIC50; key: Nc1ccc(-c2nc(N3CCOCC3)c3cc(-c4cccc(NS(=O)(=O)CCCF)c4F)ccc3n2)cn1 ; value = 7.00 to 9.00

pIC50 for C[C@H]1COCCN1c1nc(-c2cnc(N)cc2F)nc2ccc(-c3cccc(NS(=O)(=O)CCCF)c3F)nc12 is 6.00 to 7.00

According to the records, this compound COc1cc(-c2cccc(NS(=O)(=O)CC(C)C)c2F)cc2c(N3CCOCC3)nc(-c3cnc(N)nc3)nc12 displays pIC50 of 6.00 to 7.00

For reference, reported pIC50 for Nc1ccc(-c2nc(N3CCOCC3)c3cc(-c4cccc(NS(=O)(=O)CCCF)c4F)cc(N4CCOCC4)c3n2)cn1 stands at 7.00 to 9.00

Short answer for COc1cc(-c2cccc(NS(=O)(=O)c3ccccc3F)c2F)cc2c(N3CCOCC3)nc(-c3cnc(N)nc3)nc12 : pIC50 was 6.00 to 7.00

Just so you know, measured pIC50 for COc1cc(-c2cccc(NS(=O)(=O)C(C)C)c2F)cc2c(N3CCOCC3)nc(-c3ccc(N)nc3)nc12 came out at 6.00 to 7.00

// recorded pIC50 for Cc1cc(-c2cccc(NS(=O)(=O)CCCF)c2F)cc2c(N3CCOCC3)nc(-c3ccc(N)nc3)nc12 : 7.00 to 9.00

----------
- Assayed Target: B-RAFV600E (Homo sapiens, UniProt P15056, V600E)
- Sequence (P15056 416-766 V600E limits assumed): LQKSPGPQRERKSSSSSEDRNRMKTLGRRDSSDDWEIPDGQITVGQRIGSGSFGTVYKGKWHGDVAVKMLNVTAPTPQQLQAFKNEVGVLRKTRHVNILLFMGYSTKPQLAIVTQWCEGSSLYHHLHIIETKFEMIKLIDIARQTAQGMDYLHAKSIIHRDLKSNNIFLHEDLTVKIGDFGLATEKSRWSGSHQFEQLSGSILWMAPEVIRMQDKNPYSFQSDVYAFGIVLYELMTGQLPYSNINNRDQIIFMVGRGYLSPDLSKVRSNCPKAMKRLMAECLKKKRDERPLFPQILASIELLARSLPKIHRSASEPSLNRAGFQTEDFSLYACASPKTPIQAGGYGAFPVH
- Experiment Notes: B-RAFV600E radiometric assay
- Study Conditions: read-out: Kinase assay B-Raf
- Method: Compound inhibition for B-RAFV600E was determined through radiometric assay using a BRAF enzyme (Catalog No. 14-557, Millipore, USA) and MEK-K97M protein as a substrate (Catalog No. 0785-0000-1, ProqQinase GmbH, Germany). […] The phosphorylated protein product is detected by the scintillation counter Topcount® machine (Perkin Elmer). […] The labeled phosphorylated protein was measured in MicroBeta® Trilux Counter (Perkin Elmer). […]
pIC50: −log10 of the molar value.
Kindly state pIC50 for each of the entries shown.

// sample NCCOc1cc(-c2cccc(NS(=O)(=O)CCCF)c2F)cc2c(N3CCOCC3)nc(-c3ccc(N)nc3)nc12 [Example 56] , its pIC50 was 7.00 to 9.00

Measured pIC50, COc1cc(-c2cccc(NS(=O)(=O)CCCF)c2F)cc2c(N3CCOC[C@H]3C)nc(-c3cnc(N)nc3)nc12 [Example 43] : 7.00 to 9.00

# compound CCOc1cc(-c2cccc(NS(=O)(=O)CCCF)c2F)cc2c(N3CCOC[C@@H]3C)nc(-c3ccc(N)nc3)nc12 [Example 65] ; its pIC50 = 7.00 to 9.00

# compound CNc1ncc(-c2nc(N3CCOC[C@H]3C)c3cc(-c4cccc(NS(=O)(=O)CCCF)c4F)cc(OC)c3n2)cn1 [Example 136] ; its pIC50 = 7.00 to 9.00

The reported pIC50 of the compound CNC(=O)Nc1ccc(-c2nc(N3CCOCC3)c3cc(-c4cccc(NS(=O)(=O)c5c(F)cccc5F)c4F)cc(OC)c3n2)cc1 [Example 1] was 7.00 to 9.00

# pIC50 of Cc1cc(N)ncc1-c1nc(N2CCOC[C@@H]2C)c2nc(-c3cccc(NS(=O)(=O)CCCF)c3F)ccc2n1 [Example 130] = 6.00 to 7.00

// recorded pIC50 for COc1cc(-c2c(F)ccc(NS(=O)(=O)CCCF)c2F)cc2c(N3CCOCC3)nc(-c3cnc(N)nc3)nc12 [Example 82] : 7.00 to 9.00

Query COc1cc(-c2cccc(NS(=O)(=O)CCCF)c2F)cc2c(N3CCOCC3)nc(-c3cccc4[nH]ncc34)nc12 [Example 37] yields pIC50 of 7.00 to 9.00

Per the record, CNC(=O)Nc1ccc(-c2nc(N3CCOCC3)c3cc(-c4cccc(NS(=O)(=O)CCCF)c4F)cc(OC)c3n2)cc1 [Example 32] has pIC50 of 6.00 to 7.00

For CNc1ccc(-c2nc(N3CCOCC3)c3nc(-c4cccc(NS(=O)(=O)CCCF)c4F)ccc3n2)cn1 [Example 113] the compound record lists pIC50 as 7.00 to 9.00

Looking up C[C@@H]1COCCN1c1nc(-c2cnc(N)nc2)nc2ccc(-c3cccc(NS(=O)(=O)CCCF)c3F)nc12 [Example 97] , I see its pIC50 listed as 7.00 to 9.00

The recorded pIC50 for Cc1nc(N)ncc1-c1nc(N2CCOCC2)c2nc(-c3cccc(NS(=O)(=O)CCCF)c3F)ccc2n1 [Example 109] is 7.00 to 9.00

Just so you know, measured pIC50 for CCCS(=O)(=O)Nc1cccc(-c2cc(OC)c3nc(-c4ccc(NC(=O)Nc5ccncc5)cc4)nc(N4CCOCC4)c3c2)c1F [Example 34] came out at 6.00 to 7.00

// field: pIC50; key: COc1cc2nc(-c3cnc(N)nc3)nc(N3CCOCC3)c2cc1-c1cccc(NS(=O)(=O)CCCF)c1F [Example 11] ; value = 7.00 to 9.00

Documented pIC50 of Cc1cc(-c2cccc(NS(=O)(=O)CCCF)c2F)cc2c(N3CCOCC3)nc(-c3cccc4[nH]ncc34)nc12 [Example 118] : 7.00 to 9.00

In plain terms, CCCS(=O)(=O)Nc1cccc(-c2cc(OC)c3nc(-c4cnc(N)cc4C(F)(F)F)nc(N4CCOCC4)c3c2)c1F [Example 25] has a documented pIC50 of 6.00 to 7.00

Form: compound = C[C@@H]1COCCN1c1nc(-c2cnc(N)nc2)nc2c(N3CCOCC3)cc(-c3cccc(NS(=O)(=O)CCCF)c3F)cc12 [Example 73] ; pIC50 = 7.00 to 9.00

So for CCCS(=O)(=O)Nc1cccc(-c2cc(OC)c3nc(-c4ccc(NCCN)nc4)nc(N4CCOCC4)c3c2)c1F [Example 3] , the logged pIC50 turned out to be 7.00 to 9.00

GET /value?item= CCCS(=O)(=O)Nc1cccc(-c2cc(OC)c3nc(-n4c(C(F)F)nc5ccccc54)nc(N4CCOCC4)c3c2)c1F [Example 9] &field=pIC50 returns 7.00 to 9.00

Memo: COc1cc(-c2cccc(NS(=O)(=O)c3cccs3)c2F)cc2c(N3CCOCC3)nc(-c3ccc(N)nc3)nc12 [Example 38] , reported pIC50: 7.00 to 9.00

Reported pIC50 ( CCCCS(=O)(=O)Nc1cccc(-c2cc(OC)c3nc(-c4cnc(N)nc4)nc(N4CCOCC4)c3c2)c1F [Example 23] ) = 6.00 to 7.00

# pIC50 (compound: COc1cc(-c2cccc(NS(=O)(=O)c3ccccc3F)c2F)cc2c(N3CCOCC3)nc(-c3cnc(N)nc3)nc12 [Example 47] ) is 7.00 to 9.00

Reported pIC50 for Nc1ncc(-c2nc(N3CCOCC3)c3nc(-c4cccc(NS(=O)(=O)CCCF)c4F)ccc3n2)c(C(F)(F)F)n1 [Example 100] was 7.00 to 9.00
